target: human ether-à-go-go-related gene (hERG) potassium channel (human, UniProt Q12809); experiment: primary screen, population patch clamp on CHO cells stably expressing hERG; higher = less effect of the substance
Sequence (Q12809 whole entry, looked up): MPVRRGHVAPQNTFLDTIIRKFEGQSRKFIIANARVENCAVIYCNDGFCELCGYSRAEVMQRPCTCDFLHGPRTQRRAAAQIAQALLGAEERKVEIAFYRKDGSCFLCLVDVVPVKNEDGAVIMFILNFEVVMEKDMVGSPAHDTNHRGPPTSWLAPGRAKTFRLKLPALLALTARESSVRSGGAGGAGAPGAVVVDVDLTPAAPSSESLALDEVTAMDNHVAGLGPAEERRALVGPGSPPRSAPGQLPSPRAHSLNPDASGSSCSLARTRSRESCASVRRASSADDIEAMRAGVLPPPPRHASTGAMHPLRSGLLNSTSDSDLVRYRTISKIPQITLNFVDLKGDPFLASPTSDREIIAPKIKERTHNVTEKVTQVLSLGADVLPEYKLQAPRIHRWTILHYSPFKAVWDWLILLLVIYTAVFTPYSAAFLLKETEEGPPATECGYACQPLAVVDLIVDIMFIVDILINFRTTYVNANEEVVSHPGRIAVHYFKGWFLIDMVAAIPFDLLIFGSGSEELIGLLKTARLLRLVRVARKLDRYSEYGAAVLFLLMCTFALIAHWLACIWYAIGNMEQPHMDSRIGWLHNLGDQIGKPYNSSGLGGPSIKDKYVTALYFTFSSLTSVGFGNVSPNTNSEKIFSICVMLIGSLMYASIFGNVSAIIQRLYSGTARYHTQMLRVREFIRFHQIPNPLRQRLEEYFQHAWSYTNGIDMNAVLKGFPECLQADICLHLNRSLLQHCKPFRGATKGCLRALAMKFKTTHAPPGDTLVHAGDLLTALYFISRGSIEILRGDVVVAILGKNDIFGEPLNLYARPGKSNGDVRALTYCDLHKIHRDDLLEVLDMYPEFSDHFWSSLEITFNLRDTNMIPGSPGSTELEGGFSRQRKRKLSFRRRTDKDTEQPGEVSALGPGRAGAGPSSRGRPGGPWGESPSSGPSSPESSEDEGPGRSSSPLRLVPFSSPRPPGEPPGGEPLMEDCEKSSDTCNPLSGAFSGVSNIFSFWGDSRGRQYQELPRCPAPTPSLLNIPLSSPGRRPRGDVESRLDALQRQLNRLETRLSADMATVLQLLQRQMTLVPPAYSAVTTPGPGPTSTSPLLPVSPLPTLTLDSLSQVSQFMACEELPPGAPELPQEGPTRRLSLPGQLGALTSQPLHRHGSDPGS
Out of some 310,000 compounds screened, about 14,000 (4.5%) showed an effect of 50% or more. Effects have a minus sign here. Only a selection was taken, and strong results are over-represented in it overall.
result-type: hERG current change (%, negative = inhibition) at 10uM (%)
# output: bare number, implied unit %

Request - read-out hERG current change (%, negative = inhibition) at 10uM | tested on human ether-à-go-go-related gene (hERG) potassium channel (human, UniProt Q12809) | compound Cc1ccc(-n2c(SCC(=O)NCC3CCCO3)nnc2-c2ccoc2C)cc1 (stereo not shown)
-55.6

Missing value: hERG current change (%, negative = inhibition) at 10uM, human ether-à-go-go-related gene (hERG) potassium channel (human, UniProt Q12809), entry CCCC1CCC(c2nc(-c3cccnc3)no2)CC1 (stereo not shown) . Fill in?
2.03

# query: hERG current change (%, negative = inhibition) at 10uM | item Cc1occc1-c1nnc(SCC(=O)c2ccccc2)n1CC1CCCO1 (stereo not shown) | system: human ether-à-go-go-related gene (hERG) potassium channel (human, UniProt Q12809)
-8.58

Request - read-out hERG current change (%, negative = inhibition) at 10uM | tested on human ether-à-go-go-related gene (hERG) potassium channel (human, UniProt Q12809) | compound CC(C)NC(=O)N1CCN(c2ccncc2S(=O)(=O)N2CCCCC2)CC1
5.19

Report hERG current change (%, negative = inhibition) at 10uM for Cc1occc1-c1nnc(SCC(=O)c2ccc(Cl)cc2)n1CC1CCCO1 (stereo not shown) tested on human ether-à-go-go-related gene (hERG) potassium channel (human, UniProt Q12809).
-65.1

Give human ether-à-go-go-related gene (hERG) potassium channel (human, UniProt Q12809) hERG current change (%, negative = inhibition) at 10uM for COc1ccc(-c2nnc(SCC(=O)NCc3cccs3)n2C)cc1
-1.49

For human ether-à-go-go-related gene (hERG) potassium channel (human, UniProt Q12809), provide hERG current change (%, negative = inhibition) at 10uM of Cc1occc1-c1nnc(SCC(=O)NCc2cccs2)n1-c1ccc(F)cc1 please.
-60.2

Write down the reported hERG current change (%, negative = inhibition) at 10uM of C=CCc1cccc(C=Nc2ccc(Br)cc2)c1O , test system: human ether-à-go-go-related gene (hERG) potassium channel (human, UniProt Q12809).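 Note: peak tail current of the secondary pulse compared with the same well before compound.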
-4.96

Any idea what hERG current change (%, negative = inhibition) at 10uM came out for O=S(=O)(Cc1ccccc1)N1CCCC(c2nc(-c3ccc(F)cc3)no2)C1 (stereo not shown) on human ether-à-go-go-related gene (hERG) potassium channel (human, UniProt Q12809)?
-3.59

hERG current change (%, negative = inhibition) at 10uM of O=C(CSc1nnnn1-c1ccc(F)cc1)NCc1cccs1 on human ether-à-go-go-related gene (hERG) potassium channel (human, UniProt Q12809)?
-0.104

* * *

target: human ether-à-go-go-related gene (hERG) potassium channel (human, UniProt Q12809); test: primary screen, population patch clamp on CHO cells stably expressing hERG; higher = less effect of the substance;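 note: peak tail current of the secondary pulse compared with the same well before compound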
The whole screen tested about 310,000 compounds, of which about 14,000 (4.5%) showed an effect of 50% or more. The effect is printed as a negative number. Only a selection was taken, and strong results are over-represented in it overall.
The molecules listed here are annotated with their hERG current change (%, negative = inhibition) at 10uM.
// units = %; emit number, no label

INSERT INTO results (molecule, unit_text, reported_result) VALUES
  ('O=C(O)c1ccccc1SSc1ccccc1C(=O)O', '%', 25.5),
  ('CC(C)(C)c1ccc(C(=O)OCCN2CCCCC2)cc1.Cl', '%', -47.6),
  ('CCN(CC)S(=O)(=O)c1ccc(N2CCCC2)c(C(=O)OCC(=O)N2CCCC2)c1', '%', -3.73),
  ('COc1ccccc1CNn1c(-c2cccc(C)c2)nc2ccccc2c1=O', '%', -11),
  ('COc1ccc2c(=O)cc(-c3cccnc3)oc2c1OC', '%', 8.9),
  ('O=C(O)c1cc(-c2cccs2)nc2ccc(F)cc12', '%', 13.2),
  ('COc1ccc(CNn2c(-c3cccc(C)c3)nc3ccccc3c2=O)cc1OC', '%', -73.6),
  ('Fc1ccc(OCCOCCN2CCCC2)cc1', '%', -12.6),
  ('Cc1ccc(/C=C/C(=O)Nc2cccc(S(=O)(=O)N3CCOCC3)c2)o1', '%', -19.9);

Which hERG current change (%, negative = inhibition) at 10uM value belongs to CC(=O)Oc1ccc2c(C)c(CC(C)O)c(=O)oc2c1 (stereo not shown) ?
6.98

* * *

Target: human ether-à-go-go-related gene (hERG) potassium channel (human);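 note: peak tail current of the secondary pulse compared with the same well before compound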
Assay: primary screen, population patch clamp on CHO cells stably expressing hERG; higher = less effect of the substance
Method: Briefly, Chinese hamster ovary (CHO) cells stably expressing the hERG channel were dislodged from tissue culture flasks and dispensed into PPC plates. […] During the recording, background leak currents were estimated by a 100 ms step to -80 mV from an initial holding potential of -70 mV and subtracted from the subsequent current measurement. The campaign was conducted in two phases using slight differences in recording protocol. […]
Among all 310,000 compounds or so, about 14,000 (4.5%) showed an effect of 50% or more. The effect is printed as a negative number. This is one part of a sample in which strong results are shown more often than they occur.
Measured hERG current change (%, negative = inhibition) at 10uM by item
Give the quantity in %, number only.

INSERT INTO measurements (compound, reported_result) VALUES
  ('CC(=O)N1CCOc2ccc(S(=O)(=O)N3CCCCC3)cc21', 11.6),
  ('c1ccc2c(c1)c1ccccc1n1c(-c3ccc4c(c3)OCO4)nnc21', 3.9),
  ('CCOc1cc2[nH]c(=O)n(CCCC(=O)NCc3ccco3)c(=O)c2cc1OCC', 5.83);

May I ask what hERG current change (%, negative = inhibition) at 10uM has been recorded for O=C(NCCc1ccccc1)/C(=C\c1ccc([N+](=O)[O-])cc1)NC(=O)c1ccco1 ?
-80.7

Requested read-out: hERG current change (%, negative = inhibition) at 10uM. Entry: Cc1cc(C)nc(SCc2nnc(SCc3ccc([N+](=O)[O-])cc3)n2Cc2ccco2)n1
-80.6

Fill blank: measured hERG current change (%, negative = inhibition) at 10uM of the compound O=C(COC(=O)CC1CC2CCC1C2)NC(=O)NCc1ccco1 (stereo not drawn) is ____.
-4.89

Need hERG current change (%, negative = inhibition) at 10uM of CNC(=O)CSc1nnnn1-c1ccc(C)cc1C , thanks.
7.63

Fill in: hERG current change (%, negative = inhibition) at 10uM of CCOC(=O)C1CCN(S(=O)(=O)c2ccc3c(c2)N(C(C)=O)CCO3)CC1 is ___
-67.2

* * *

Some molecules, each annotated with its measured hERG current change (%, negative = inhibition) at 10uM.
Target: human ether-à-go-go-related gene (hERG) potassium channel (human, UniProt Q12809);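 note: peak tail current of the secondary pulse compared with the same well before compound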
Experiment: primary screen, population patch clamp on CHO cells stably expressing hERG; higher = less effect of the substance
Method: Briefly, Chinese hamster ovary (CHO) cells stably expressing the hERG channel were dislodged from tissue culture flasks and dispensed into PPC plates. […] During the recording, background leak currents were estimated by a 100 ms step to -80 mV from an initial holding potential of -70 mV and subtracted from the subsequent current measurement. The campaign was conducted in two phases using slight differences in recording protocol. […]
The campaign covered roughly 310,000 compounds. About 14,000 (4.5%) showed an effect of 50% or more. Effects have a minus sign here. Many of the other results were omitted from the sample, so strong results are more common in it than they were.
Please respond with the number in % and leave the unit unwritten.

Previously resolved entries follow.
INSERT INTO results (molecule, reported_result) VALUES
  ('O=[N+]([O-])c1ccc(S(=O)(=O)NCCN2CCOCC2)cc1', 11.2),
  ('CC(=O)c1ccc(N2CCN(S(=O)(=O)c3csc(C(N)=O)c3)CC2)cc1', -26.1),
  ('O=[N+]([O-])c1ccc(-c2ccc(S(=O)(=O)NCCN3CCCC3)cc2)cc1', -77.7),
  ('Cc1ccc(S(=O)(=O)N(CCC#N)CCN2CCCC2)cc1', -21.9),
  ('Cc1nccn1CC(O)COc1ccc([N+](=O)[O-])cc1 (centres unmarked)', -66.2),
  ('O=S(=O)(NCCN1CCCC1)c1ccc(Br)cc1', -8.08);

Recorded hERG current change (%, negative = inhibition) at 10uM for CCC(=O)Nc1cc2c3c(c1)CCC(=O)N3CCC2 , please?
1.44

What value of hERG current change (%, negative = inhibition) at 10uM has been recorded for this entry: CC(=O)c1ccc(N2CCN(S(=O)(=O)c3ccc4c(c3)NC(=O)CC(=O)N4)CC2)cc1
13.4

What does the record list as hERG current change (%, negative = inhibition) at 10uM for COc1ccc(N2CCN(CC(O)COc3ccc([N+](=O)[O-])cc3)CC2)cc1.Cl (centres unmarked) ?
-62.5

Reported hERG current change (%, negative = inhibition) at 10uM for COc1ccc(OCC(O)Cn2ccnc2C)cc1 (centres unmarked) : what is it?
5.09

State the recorded hERG current change (%, negative = inhibition) at 10uM for this entry: COc1ccc(N2CCN(S(=O)(=O)c3ccc4c(c3)NC(=O)CC(=O)N4)CC2)cc1
13.2

Entry CCOc1ccc(CCNC(=O)c2cccc(S(=O)(=O)N3CC(C)OC(C)C3)c2)cc1OCC (centres unmarked) : reported hERG current change (%, negative = inhibition) at 10uM = ?
-27.3

Quick check: hERG current change (%, negative = inhibition) at 10uM of COc1ccc(N(C(=O)CNC(=O)c2cccs2)C(C(=O)NCC2CCCO2)c2ccccc2)cc1OC (centres unmarked) ?
4.94

I would be grateful if you could share the reported hERG current change (%, negative = inhibition) at 10uM for COc1ccc(C2C=C(c3ccccc3)Nc3nc(CCCO)nn32)cc1 (centres unmarked) .
-51.8

Could you share which hERG current change (%, negative = inhibition) at 10uM value was measured for NC(=O)c1cc(S(=O)(=O)N2CCN(c3ccc([N+](=O)[O-])cc3)CC2)cs1 ?
-74.4

State the recorded hERG current change (%, negative = inhibition) at 10uM for this entry: COc1ccc(N2C(=O)c3ccccc3NC23CCC(C)CC3)cc1 (centres unmarked)
4.35

Given the molecule CN([C@@H](C(=O)OC(C)(C)C)c1ccccc1)S(=O)(=O)c1cccc(S(=O)(=O)N(C)[C@@H](C(=O)OC(C)(C)C)c2ccccc2)c1 , what is its reported hERG current change (%, negative = inhibition) at 10uM?
14.3

Which hERG current change (%, negative = inhibition) at 10uM reading was recorded for the molecule Cc1ccc(NC(=O)CN(C)C(=O)c2cccc(S(=O)(=O)N3CCc4ccccc43)c2)cc1 ?
-15.6

Using the record for N#Cc1ccccc1Sc1ccccc1C(=O)Nc1ccccc1 , report its hERG current change (%, negative = inhibition) at 10uM.
0.339

Which hERG current change (%, negative = inhibition) at 10uM is listed for COc1ccc(-c2noc(CN(C(=O)c3cccs3)C(C)C)n2)cc1 ?
-28.6
